Value source: PubChem BioAssay (NCI)

# Tested on: 786-0 renal
# Method Description: NCI tumour cell line growth inhibition, 48 h
This listing pairs compounds with measured TGI.

Use the examples below as a reference point.
Compound	Result
Clc1cccc(NC=Nc2ccc(-c3nc4ccccc4s3)cc2)c1	18.6 µM
COc1ccc(CN2CCCC(C(=O)c3ccc(C(F)(F)F)cc3)C2)c(O)c1 (stereo unspecified)	40.4 µM
Cc1cccc2c3ccc4c(c3n(C)c12)C(=O)C=CC4=O	> 100 µM
O=C1C(C=NCCc2c[nH]c3ccccc23)C(C(F)(F)F)=NN1c1nc2ccccc2s1 (stereo unspecified)	> 100 µM
CN1CN(c2ccccc2)C2(CCN(CCCC3(c4cccs4)OCCO3)CC2)C1=O	> 100 µM

In: Tell me TGI reported for COc1cc2c(c(O)c1C)C(=O)C(Cl)=CC2=O
Out: 28.2 µM

In: Tell me TGI reported for O=C1/C(=C/c2ccc([N+](=O)[O-])cc2)CNC/C1=C\c1ccc([N+](=O)[O-])cc1
Out: 3.18 µM

----------
# Test system: OVCAR-3 ovarian
# Method Description: NCI tumour cell line growth inhibition, 48 h
Observation Type: TGI

Compound	Result
CCCCCCCCCCCCOC1C(CNCC2OC3OC(C)(C)OC3C2NC(=O)Nc2ccc(C(=O)OCC)cc2)OC2OC(C)(C)OC21 (centres undefined)	11.5 µM
CCOc1ccc(N=C/C=C(\Cl)c2ccc3ccccc3c2)cc1	31.5 µM
O=C1Oc2cc3c(c4cccc1c24)OCN(c1ccc(Cl)cc1)C3	> 57.4 µM
CSc1c(C(=O)Nc2ccc(C)cc2)c(N)[nH]c(=O)c1C#N	> 100 µM
COc1cc2c(NCCCCCCO[N+](=O)[O-])ncnc2c(OC)c1OC	> 78 µM

In: Tell me TGI reported for CCN(CC)CCCn1c(=O)c2cccnc2n2c3c(=O)n(C)c(=O)n(C)c3nc12
Out: > 100 µM

In: Tell me TGI reported for CC1CC(C#N)=C2NCCCCN2C1=O (centres undefined)
Out: > 100 µM

----------
# Tested on: M19-MEL melanoma
# Method Description: NCI tumour cell line growth inhibition, 48 h
Observation Type: TGI

Molecule	TGI
CC(=O)/C=C/c1cccc(N=S)c1	18.3 µM

In: Tell me TGI reported for O=c1[nH]c(=O)n(C2CC(O)C(CO)O2)cc1C#Cc1c(F)c(F)c(F)c(F)c1F (stereo unspecified)
Out: > 100 µM

In: Tell me TGI reported for O=C(Nc1ccccc1[N+](=O)[O-])c1ccccc1
Out: > 100 µM

In: Tell me TGI reported for CN1CCCNCCN(CCc2ccccn2)CCCN(C)CC1
Out: > 100 µM

In: Tell me TGI reported for CC(=O)OCCc1cccnc1/C=N/O
Out: > 100 µM

----------
This listing pairs compounds with measured TGI.
# Test system: SK-MEL-28 melanoma
# Method Description: NCI tumour cell line growth inhibition, 48 h

Compound	Result
CCN(CC)CCCn1c(=O)c2cccnc2n2c3c(=O)n(C)c(=O)n(C)c3nc12	> 100 µM
O=C(Nc1ccccc1[N+](=O)[O-])c1ccccc1	> 100 µM
CN(C)c1ccc(/C(Br)=C2\OC(=O)c3ccccc32)cc1	> 100 µM

In: Tell me TGI reported for CC1CCC[P+](Cc2ccccc2)(c2ccccc2)CC1 (stereo unspecified)
Out: > 100 µM

In: Tell me TGI reported for CCOC(=O)c1cc(-c2ccc([N+](=O)[O-])cc2)n(-c2ccc(C(=O)O)c(O)c2)c1C
Out: 14.4 µM

In: Tell me TGI reported for Cc1cccc(C[C@@]2(SCc3ccccc3)C(C)(C)[C@@H]3CC[C@@]2(C)C3)n1
Out: 45.3 µM

----------
This listing pairs molecules with measured TGI.
# Test system: NCI-H522 lung
# Method Description: NCI tumour cell line growth inhibition, 48 h

Use the examples below as a reference point.
Molecule	TGI
O=C1CC[C@H]2CNC(=O)C[C@H]2C1	> 100 µM
CN1CCCNCCN(CCc2ccccn2)CCCN(C)CC1	> 100 µM

In: System NCI-H522 lung. Read-out TGI. Item O=C1CC(c2ccc([N+](=O)[O-])cc2)C2(C(=O)NC(=S)NC2=O)C(c2ccc([N+](=O)[O-])cc2)C1 (stereo not given) . Report value.
Out: 36.4 µM

In: System NCI-H522 lung. Read-out TGI. Item CSc1c(C(=O)Nc2ccc(C)cc2)c(N)[nH]c(=O)c1C#N . Report value.
Out: > 100 µM

----------
# System: T-47D breast
# Method Description: NCI tumour cell line growth inhibition, 48 h
This listing pairs compounds with measured TGI.
Respond numerically; units are µM and should not be typed.

Use the examples below as a reference point.
Record Smiles	System	Result Number
CCOc1ccc(N=C/C=C(\Cl)c2ccc3ccccc3c2)cc1	T-47D breast	22.3
O=C1/C(=C/c2ccc(F)cc2)CNC/C1=C\c1ccc(F)cc1	T-47D breast	20.3
COc1cc2c(c(O)c1C)C(=O)C(Cl)=CC2=O	T-47D breast	5.22
CN(C)c1ccc2c(c1)oc(=O)c1ccccc12	T-47D breast	28.4
O=C1C(Br)=Cc2c(Cl)sc(Cl)c21	T-47D breast	7.58
COc1cccc(-c2nn(-c3ccccc3)cc2-c2ccnc(NCCCNS(=O)(=O)c3cccc(F)c3)c2)c1	T-47D breast	5.27

In: Tell me TGI reported for O=C(Cc1ccc(/C=C/C(=O)c2ncc[nH]2)cc1)Nc1ccc(Cl)cc1
Out: 16.2

In: Tell me TGI reported for O=C(O[C@H](/C=C/c1ccccc1)P1(=O)N(Cc2ccccc2)[C@@H]2CCCC[C@H]2N1Cc1ccccc1)c1ccccc1
Out: 3.66

In: Tell me TGI reported for CC(C)/C(Cl)=N\OC(=O)NNc1ccccc1
Out: 40.1

----------
# Test system: UO-31 renal
# Method Description: NCI tumour cell line growth inhibition, 48 h; in the data active = GI50 below about 0.43 µM; inactive = the rest
Hello, when you answer, please use one of the following outcomes: active, inactive

Some entries whose results are on file:
Record Smiles	Class
Clc1cccc(NC=Nc2ccc(-c3nc4ccccc4s3)cc2)c1	inactive
Cc1c(Cl)cccc1Nc1ncccc1C(=O)O	inactive
S=C1NCCN1C1=Nc2ccccc2CO1	inactive
COC(=O)c1c2c(c(C)[n+]([O-])c1C)C(=O)C=CC2=O	inactive
O=[n+]1c(CBr)c(CBr)n([O-])c2ccccc21	inactive
COC(=O)[C@@H](C)C[C@H](Cc1ccccc1)NC(=O)c1nc([C@@H](C[C@H](C(C)C)N(C)C(=O)[C@@H](NC(=O)[C@H]2CCCN2C)C(C)C)OC(C)=O)sc1C	active
CNC(=O)c1cc(Oc2ccc3c(c2)sc2nc(-c4ccc(N)cc4)cn23)ccn1	inactive

In: Returns: the outcome recorded for O=C(/C=C(\[O-])c1ccccc1)CCCCCCC(=O)/C=C(\[O-])c1ccccc1.O=C(/C=C(\[O-])c1ccccc1)CCCCCCC(=O)/C=C(\[O-])c1ccccc1.O=C(/C=C(\[O-])c1ccccc1)CCCCCCC(=O)/C=C(\[O-])c1ccccc1.[La+3].[La+3] in this assay.
Out: inactive

----------
Entries with their measured GI50, system SR leukemia:

Use the examples below as a reference point.
Record Smiles	Result
O=C1CSC(N2CCN(c3cccc(Cl)c3)CC2)=N1	> 100 µM
NS(=O)(=O)c1ccc(-n2nc(-c3ccc(Br)cc3)ccc2=O)cc1	8.85 µM
S=C1NCCN1C1=Nc2ccccc2CO1	> 100 µM

Consider the record given below.
In: Tell me GI50 reported for COc1cccc(-c2nn(-c3ccccc3)cc2-c2ccnc(NCCCNS(=O)(=O)c3cccc(F)c3)c2)c1
Out: 2.13 µM

----------
# Tested on: TK-10 renal
# Method Description: NCI tumour cell line growth inhibition, 48 h
This listing pairs molecules with measured TGI.

Use the examples below as a reference point.
Record Smiles	System	TGI
CN1CN(c2ccccc2)C2(CCN(CCCC3(c4cccs4)OCCO3)CC2)C1=O	TK-10 renal	> 100 µM
Cc1cccc(C[C@@]2(SCc3ccccc3)C(C)(C)[C@@H]3CC[C@@]2(C)C3)n1	TK-10 renal	34.5 µM
COc1cc2c(cc1OC)C(=O)/C(=C/c1cc(C)c(O)c(C)c1)C2	TK-10 renal	> 100 µM
O=C(O)CNC(=O)c1ccc([As](=O)(O)O)cc1	TK-10 renal	> 100 µM
O=C(Nc1ccccc1[N+](=O)[O-])c1ccccc1	TK-10 renal	> 100 µM

In: Tell me TGI reported for Cc1cccc(N(CCC#N)S(=O)(=O)c2ccccc2)c1
Out: > 100 µM

In: Tell me TGI reported for O=C1N[C@@H]2c3c(csc3Br)C(=O)[C@@H]2O1
Out: 80.3 µM

In: Tell me TGI reported for O=[N+]([O-])C(=C(Sc1ccccc1)Sc1ccccc1)C(Cl)=C(Cl)Cl
Out: 0.326 µM

In: Tell me TGI reported for O=C1c2ccccc2C(=O)c2c1ccc1[nH]c(CCl)nc21
Out: 9.79 µM

In: Tell me TGI reported for COc1cccc(-c2nc(-c3cnccn3)n(Cc3ccccc3)n2)c1
Out: > 100 µM

In: Tell me TGI reported for OCCNCO
Out: > 100 µM
